Target: human μ opiate receptor (Homo sapiens, UniProt P35372)
Construct: purchased PerkinElmer Life Sciences, Zaventem, Belgium RB-HOM; host or cells: CHO-K1 cells (membrane preparation)
Sequence (P35372 whole entry): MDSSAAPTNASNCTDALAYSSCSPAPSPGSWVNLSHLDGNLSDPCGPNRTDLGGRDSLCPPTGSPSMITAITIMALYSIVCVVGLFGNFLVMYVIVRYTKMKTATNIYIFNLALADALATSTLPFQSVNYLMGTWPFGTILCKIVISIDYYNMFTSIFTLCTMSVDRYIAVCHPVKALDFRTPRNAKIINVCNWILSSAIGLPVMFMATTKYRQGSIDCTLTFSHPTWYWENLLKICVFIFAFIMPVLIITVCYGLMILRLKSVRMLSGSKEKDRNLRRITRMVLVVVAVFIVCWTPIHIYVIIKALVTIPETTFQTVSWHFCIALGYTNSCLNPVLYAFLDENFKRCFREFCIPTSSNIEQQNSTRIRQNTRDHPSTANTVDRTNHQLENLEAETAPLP
Assay: Affinity for the human μ opiate receptor ([3H]-naloxone displacement, CHO-K1 receptor membrane preparation, SPA)
Format: binding
Conditions: test concentration of 1 μM; read-out: μ (binding on the μ opioid receptor, % inhibition)

Molecule	Units Label	inhibition at 1 µM
CN(C)C(c1ccccc1)C1CCC(NC(=O)COC2CCCN(S(=O)(=O)c3ccccc3)C2)CC1 (stereo not shown) [Example 109]	%	89
Cc1ccc(S(=O)(=O)N2CCC(OCC(=O)NC3CCC(C(c4ccccc4)N(C)C)CC3)C2)cc1 (stereo not shown) [Example 123]	%	27
COc1ccc(S(=O)(=O)N2CCCCC2COCC(=O)NCC2CCC(C(c3ccccc3)N(C)C)CC2)c(OC)c1 (stereo not shown) [Example 106]	%	92
COc1ccc(S(=O)(=O)N(C)CCOCC(=O)NCC2CCC(C(c3cccs3)N(C)C)CC2)cc1OC (stereo not shown) [Example 127]	%	87
